molecular target: UniProt P21728; format: functional, cell-based
Sequence (P21728 whole entry): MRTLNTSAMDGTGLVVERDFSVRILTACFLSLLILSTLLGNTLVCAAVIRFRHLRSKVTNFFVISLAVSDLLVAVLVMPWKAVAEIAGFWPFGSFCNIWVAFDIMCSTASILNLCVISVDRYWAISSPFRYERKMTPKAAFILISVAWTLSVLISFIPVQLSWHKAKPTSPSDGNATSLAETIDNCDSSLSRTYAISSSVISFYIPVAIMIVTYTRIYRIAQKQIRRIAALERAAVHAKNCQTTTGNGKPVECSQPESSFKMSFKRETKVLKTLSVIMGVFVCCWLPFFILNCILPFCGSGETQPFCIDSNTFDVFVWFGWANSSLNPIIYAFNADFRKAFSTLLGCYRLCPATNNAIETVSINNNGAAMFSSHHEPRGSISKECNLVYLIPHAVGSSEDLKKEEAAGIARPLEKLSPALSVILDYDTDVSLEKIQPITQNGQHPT
# reported AC50; entries follow

{"columns": ["COMPOUND", "SYSTEM_TESTED", "AC50"],
 "data": [
  ["CN1CC2c3ccccc3Oc3ccc(Cl)cc3C2C1 (stereo unspecified)", "UniProt P21728", "0.244 µM"],
  ["C[C@H](CCC(=O)O)[C@H]1CC[C@H]2[C@@H]3[C@H](O)C[C@@H]4C[C@H](O)CC[C@]4(C)[C@H]3CC[C@]12C", "UniProt P21728", "> 30 µM"],
  ["Cn1cnc2c(F)c(Nc3ccc(Br)cc3F)c(C(=O)NOCCO)cc21", "UniProt P21728", "> 30 µM"],
  ["C[C@H](Nc1ncnc2[nH]cnc12)c1cc2cccc(Cl)c2c(=O)n1-c1ccccc1", "UniProt P21728", "> 30 µM"],
  ["CCC[C@@]1(CCc2ccccc2)CC(O)=C([C@H](CC)c2cccc(NS(=O)(=O)c3ccc(C(F)(F)F)cn3)c2)C(=O)O1", "UniProt P21728", "14 µM"]
]}

Switching to the query record.
So what's the measured AC50 for this one? `CO[C@@H]1[C@@H](OC(N)=O)[C@@H](O)[C@H](Oc2ccc3c(O)c(NC(=O)c4ccc(O)c(CC=C(C)C)c4)c(=O)oc3c2C)OC1(C)C`
> 30 µM

* * *

System: Motilin receptor (Homo sapiens) | Read-out: AC50; note: assay procedure not described here
Sequence (O43193 whole entry): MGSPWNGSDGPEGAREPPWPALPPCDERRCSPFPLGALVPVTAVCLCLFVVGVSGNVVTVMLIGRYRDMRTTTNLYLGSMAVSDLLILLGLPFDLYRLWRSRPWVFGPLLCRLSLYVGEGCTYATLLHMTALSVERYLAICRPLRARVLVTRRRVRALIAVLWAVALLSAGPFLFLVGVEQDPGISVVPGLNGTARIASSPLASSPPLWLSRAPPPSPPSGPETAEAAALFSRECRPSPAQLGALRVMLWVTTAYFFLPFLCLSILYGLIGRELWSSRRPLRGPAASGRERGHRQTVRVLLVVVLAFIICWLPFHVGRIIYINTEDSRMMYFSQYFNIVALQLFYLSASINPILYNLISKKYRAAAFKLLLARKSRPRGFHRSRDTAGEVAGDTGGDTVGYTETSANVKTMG

Examples with their reported AC50 follow.
{"columns": ["COMPOUND", "SYSTEM_TESTED", "MEASURED_RESULT"],
 "data": [
  ["O=C(O)[C@H]1/C(=C/CO)O[C@@H]2CC(=O)N21", "Motilin receptor (Homo sapiens)", "> 30 µM"],
  ["C[C@]12C=CC(=O)C=C1CC[C@@H]1[C@@H]2[C@@H](O)C[C@@]2(C)[C@H]1CC[C@]2(O)C(=O)CO", "Motilin receptor (Homo sapiens)", "> 10 µM"],
  ["C=CC1=C(C(=O)O)N2C(=O)[C@@H](NC(=O)/C(=N\\O)c3csc(N)n3)[C@H]2SC1", "Motilin receptor (Homo sapiens)", "> 10 µM"],
  ["COC(=O)CCc1ccc(OCC(O)CNC(C)C)cc1 (centres undefined)", "Motilin receptor (Homo sapiens)", "> 30 µM"],
  ["CC(=O)OCC1=C(C(=O)O)N2C(=O)[C@@H](NC(=O)CSc3ccncc3)[C@H]2SC1", "Motilin receptor (Homo sapiens)", "> 10 µM"]
]}

Lab request: please report AC50 under test system Motilin receptor (Homo sapiens) for `CC(=O)Oc1ccccc1C(=O)O`; note: assay procedure not described here
> 10 µM

Lab request: please report AC50 under test system Motilin receptor (Homo sapiens) for `CN(C)CCOCC(=O)NC12CC3CC(CC(C3)C1)C2`; note: assay procedure not described here
> 30 µM

Lab request: please report AC50 under test system Motilin receptor (Homo sapiens) for `Oc1cc(O)c2c(c1)O[C@H](c1ccc(O)c(O)c1)[C@@H](O)C2`; note: assay procedure not described here
> 10 µM

Lab request: please report AC50 under test system Motilin receptor (Homo sapiens) for CCC(=O)c1ccc2c(c1)N(CC(C)N(C)C)c1ccccc1S2 (centres undefined); note: assay procedure not described here
> 10 µM

* * *

System: Type-1 angiotensin II receptor (Homo sapiens, UniProt P30556) | Read-out: AC50; note: assay procedure not described here
Sequence (P30556 whole entry): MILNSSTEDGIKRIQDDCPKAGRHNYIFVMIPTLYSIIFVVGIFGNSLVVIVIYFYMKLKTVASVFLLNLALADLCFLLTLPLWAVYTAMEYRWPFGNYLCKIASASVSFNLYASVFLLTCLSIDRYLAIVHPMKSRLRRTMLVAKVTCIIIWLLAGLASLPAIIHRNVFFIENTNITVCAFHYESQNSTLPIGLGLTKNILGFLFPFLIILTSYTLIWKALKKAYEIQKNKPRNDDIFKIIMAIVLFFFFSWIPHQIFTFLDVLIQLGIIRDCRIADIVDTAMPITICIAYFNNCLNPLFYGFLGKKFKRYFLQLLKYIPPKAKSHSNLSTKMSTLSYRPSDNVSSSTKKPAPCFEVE

{"columns": ["MOLECULE", "AC50"],
 "data": [
  ["OCCN(CCO)c1nc(N2CCCCC2)c2nc(N(CCO)CCO)nc(N3CCCCC3)c2n1", "> 30 µM"],
  ["C=C(c1ccccc1OCc1cccc(Cl)c1)n1ccnc1", "> 30 µM"],
  ["CC1NCCOC1c1ccccc1 (stereo unspecified)", "> 30 µM"],
  ["CN(C)CCC(O)(c1ccccc1)c1ccccc1Cl (stereo unspecified)", "> 10 µM"],
  ["Cn1cnc2c(F)c(Nc3ccc(Br)cc3F)c(C(=O)NOCCO)cc21", "> 30 µM"],
  ["COC(=O)[C@H]1[C@H]2C[C@@H]3c4[nH]c5ccccc5c4CCN3C[C@H]2C[C@@H](OC(=O)c2cc(OC)c(OC)c(OC)c2)[C@@H]1OC", "> 10 µM"],
  ["C[C@]12C=CC(=O)C=C1C(Cl)=C[C@@H]1[C@@H]2[C@@H](O)C[C@@]2(C)[C@H]1CC[C@]2(O)C(=O)CO", "> 30 µM"],
  ["C=CC1=C(C(=O)O)N2C(=O)[C@@H](NC(=O)/C(=N\\O)c3csc(N)n3)[C@H]2SC1", "> 30 µM"],
  ["NCCCCCC(=O)O", "> 10 µM"],
  ["CCN(CCO)CCCC(C)Nc1ccnc2cc(Cl)ccc12 (stereo unspecified) [HYDROXYCHLOROQUINE]", "> 10 µM"]
]}

Lab request: please report AC50 under test system Type-1 angiotensin II receptor (Homo sapiens, UniProt P30556) for CCC(=O)O[C@H](CC(=O)O)C[N+](C)(C)C [LEVOCARNITINE PROPIONATE]; note: assay procedure not described here
> 30 µM

Lab request: please report AC50 under test system Type-1 angiotensin II receptor (Homo sapiens, UniProt P30556) for O=C(O[C@H]1C[N+]2(CCCOc3ccccc3)CCC1CC2)C(O)(c1cccs1)c1cccs1 [ACLIDINIUM BROMIDE]; note: assay procedure not described here
> 30 µM

Lab request: please report AC50 under test system Type-1 angiotensin II receptor (Homo sapiens, UniProt P30556) for OCCOCCN1CCN(C(c2ccccc2)c2ccc(Cl)cc2)CC1 (stereo unspecified) [HYDROXYZINE]; note: assay procedure not described here
> 30 µM
